Protein target, amino acids: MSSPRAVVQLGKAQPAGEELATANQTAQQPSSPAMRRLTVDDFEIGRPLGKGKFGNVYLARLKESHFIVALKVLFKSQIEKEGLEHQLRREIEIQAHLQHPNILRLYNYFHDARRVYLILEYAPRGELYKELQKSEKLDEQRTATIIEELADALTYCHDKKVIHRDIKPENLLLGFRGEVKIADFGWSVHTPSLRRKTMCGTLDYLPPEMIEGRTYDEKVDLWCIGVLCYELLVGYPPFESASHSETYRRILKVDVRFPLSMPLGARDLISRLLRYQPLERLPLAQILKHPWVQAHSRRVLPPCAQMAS
assay readout: Kd

[
  {
    "chemical string": "Cc1cc(Nc2nc(Sc3ccc(NC(=O)CN4CC[C@@H](C(=O)N5CCC(F)(F)C5)C4)cc3)nn3cccc23)n[nH]1",
    "assay readout": "Kd",
    "recorded result": "< 10 nM"
  },
  {
    "chemical string": "Cc1cc(Nc2nc(Sc3ccc(NC(=O)CN4CC[C@@H](C(=O)NC5CCCC5)C4)cc3)nn3cccc23)n[nH]1",
    "assay readout": "Kd",
    "recorded result": "< 10 nM"
  }
]
